Source of measurements: paper PMC7201885

measured.target: T143A nvTRPM2 (Nematostella vectensis, UniProt A7T1N0, T143A)
Sequence (A7T1N0 whole entry T143A): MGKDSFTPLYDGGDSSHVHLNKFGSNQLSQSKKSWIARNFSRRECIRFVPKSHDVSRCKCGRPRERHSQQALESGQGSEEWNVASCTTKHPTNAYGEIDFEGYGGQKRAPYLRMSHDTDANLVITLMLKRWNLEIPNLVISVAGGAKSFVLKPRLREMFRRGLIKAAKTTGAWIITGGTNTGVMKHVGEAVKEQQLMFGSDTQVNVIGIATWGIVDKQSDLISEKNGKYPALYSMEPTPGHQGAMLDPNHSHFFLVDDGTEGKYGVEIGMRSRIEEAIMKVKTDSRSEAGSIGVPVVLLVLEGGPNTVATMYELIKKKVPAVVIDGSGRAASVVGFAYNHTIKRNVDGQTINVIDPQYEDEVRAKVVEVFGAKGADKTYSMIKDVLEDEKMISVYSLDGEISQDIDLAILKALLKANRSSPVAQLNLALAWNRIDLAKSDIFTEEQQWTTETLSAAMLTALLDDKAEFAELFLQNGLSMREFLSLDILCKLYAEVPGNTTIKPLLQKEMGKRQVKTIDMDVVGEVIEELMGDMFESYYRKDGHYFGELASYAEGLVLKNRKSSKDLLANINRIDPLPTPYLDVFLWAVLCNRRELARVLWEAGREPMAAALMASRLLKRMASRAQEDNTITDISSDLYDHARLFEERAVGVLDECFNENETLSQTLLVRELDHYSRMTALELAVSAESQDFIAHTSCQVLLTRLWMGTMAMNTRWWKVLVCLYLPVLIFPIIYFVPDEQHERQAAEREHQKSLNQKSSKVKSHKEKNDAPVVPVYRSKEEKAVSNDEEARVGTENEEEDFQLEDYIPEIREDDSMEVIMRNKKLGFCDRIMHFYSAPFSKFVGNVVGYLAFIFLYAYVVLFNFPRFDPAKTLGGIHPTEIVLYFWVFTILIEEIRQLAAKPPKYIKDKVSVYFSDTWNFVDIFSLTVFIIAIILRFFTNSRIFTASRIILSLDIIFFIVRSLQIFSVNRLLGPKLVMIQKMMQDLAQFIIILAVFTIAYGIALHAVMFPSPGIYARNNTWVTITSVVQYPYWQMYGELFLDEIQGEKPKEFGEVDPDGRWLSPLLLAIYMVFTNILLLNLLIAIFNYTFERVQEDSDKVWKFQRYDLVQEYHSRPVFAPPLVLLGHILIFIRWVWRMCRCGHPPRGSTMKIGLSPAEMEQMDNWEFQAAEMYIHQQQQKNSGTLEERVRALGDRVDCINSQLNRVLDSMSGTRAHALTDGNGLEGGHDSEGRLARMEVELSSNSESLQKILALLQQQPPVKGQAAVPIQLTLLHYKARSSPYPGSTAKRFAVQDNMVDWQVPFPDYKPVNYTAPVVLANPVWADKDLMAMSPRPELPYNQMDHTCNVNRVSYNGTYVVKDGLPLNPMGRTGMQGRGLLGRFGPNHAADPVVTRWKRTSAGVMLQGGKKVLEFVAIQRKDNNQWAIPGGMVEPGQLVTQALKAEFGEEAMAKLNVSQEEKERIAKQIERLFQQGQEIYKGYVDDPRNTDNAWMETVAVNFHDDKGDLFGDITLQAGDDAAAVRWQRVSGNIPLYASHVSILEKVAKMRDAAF
assay.name: Inside-out patch-clamp, T143A nvTRPM2
Assay type: cell-based
measurement.setup: read-out: EC50 for channel activation by Ca2+ (fractional Po), saturating ADPRP (100 µM) + 2.5 µM PIP2
pEC50: −log10 of the molar value.
value.type: pEC50

>  <molecule>
[Ca+2] [Ca^2+]

>  <reported>
6.19

$$$$

----------
measured.target: nvTRPM2 (Nematostella vectensis, UniProt A7T1N0)
Sequence (A7T1N0 whole entry): as the sequence (A7T1N0 whole entry T143A) above, with A143T counted along it
assay.name: Inside-out patch-clamp, full-length
Type: cell-based
measurement.setup: read-out: EC50 for channel activation; WT nvTRPM2; 125 µM Ca2+ + 2.5 µM PIP2
value.type: EC50 (nM)

>  <compound>
Nc1ncnc2c1ncn2[C@@H]1O[C@H](COP(=O)(O)OP(=O)(O)OC[C@H]2O[C@@H](O)C(O)[C@H]2O)C(O)[C@@H]1OP(=O)(O)O (stereo partly shown) [ADPRP, ADPR-2′-phosphate]

>  <u>
nM

>  <reported>
310

$$$$

----------
measured.target: nvTRPM2 (Nematostella vectensis)
assay.name: Inside-out patch-clamp, full-length
Type: cell-based
measurement.setup: read-out: EC50 for nvTRPM2 channel activation; full-length nvTRPM2; 125 µM cytosolic Ca2+; Hill fit; −20 mV

>  <molecule>
Nc1ncnc2c1ncn2[C@@H]1O[C@H](COP(=O)(O)OP(=O)(O)OC[C@H]2O[C@@H](O)C(O)[C@H]2O)C(O)[C@@H]1OP(=O)(O)O (stereo partly shown) [ADPRP, ADPR-2′-phosphate]

>  <EC50>
~400 nM

$$$$

----------
measured.target: T179A nvTRPM2 (Nematostella vectensis, UniProt A7T1N0, T179A)
Sequence (A7T1N0 whole entry T179A): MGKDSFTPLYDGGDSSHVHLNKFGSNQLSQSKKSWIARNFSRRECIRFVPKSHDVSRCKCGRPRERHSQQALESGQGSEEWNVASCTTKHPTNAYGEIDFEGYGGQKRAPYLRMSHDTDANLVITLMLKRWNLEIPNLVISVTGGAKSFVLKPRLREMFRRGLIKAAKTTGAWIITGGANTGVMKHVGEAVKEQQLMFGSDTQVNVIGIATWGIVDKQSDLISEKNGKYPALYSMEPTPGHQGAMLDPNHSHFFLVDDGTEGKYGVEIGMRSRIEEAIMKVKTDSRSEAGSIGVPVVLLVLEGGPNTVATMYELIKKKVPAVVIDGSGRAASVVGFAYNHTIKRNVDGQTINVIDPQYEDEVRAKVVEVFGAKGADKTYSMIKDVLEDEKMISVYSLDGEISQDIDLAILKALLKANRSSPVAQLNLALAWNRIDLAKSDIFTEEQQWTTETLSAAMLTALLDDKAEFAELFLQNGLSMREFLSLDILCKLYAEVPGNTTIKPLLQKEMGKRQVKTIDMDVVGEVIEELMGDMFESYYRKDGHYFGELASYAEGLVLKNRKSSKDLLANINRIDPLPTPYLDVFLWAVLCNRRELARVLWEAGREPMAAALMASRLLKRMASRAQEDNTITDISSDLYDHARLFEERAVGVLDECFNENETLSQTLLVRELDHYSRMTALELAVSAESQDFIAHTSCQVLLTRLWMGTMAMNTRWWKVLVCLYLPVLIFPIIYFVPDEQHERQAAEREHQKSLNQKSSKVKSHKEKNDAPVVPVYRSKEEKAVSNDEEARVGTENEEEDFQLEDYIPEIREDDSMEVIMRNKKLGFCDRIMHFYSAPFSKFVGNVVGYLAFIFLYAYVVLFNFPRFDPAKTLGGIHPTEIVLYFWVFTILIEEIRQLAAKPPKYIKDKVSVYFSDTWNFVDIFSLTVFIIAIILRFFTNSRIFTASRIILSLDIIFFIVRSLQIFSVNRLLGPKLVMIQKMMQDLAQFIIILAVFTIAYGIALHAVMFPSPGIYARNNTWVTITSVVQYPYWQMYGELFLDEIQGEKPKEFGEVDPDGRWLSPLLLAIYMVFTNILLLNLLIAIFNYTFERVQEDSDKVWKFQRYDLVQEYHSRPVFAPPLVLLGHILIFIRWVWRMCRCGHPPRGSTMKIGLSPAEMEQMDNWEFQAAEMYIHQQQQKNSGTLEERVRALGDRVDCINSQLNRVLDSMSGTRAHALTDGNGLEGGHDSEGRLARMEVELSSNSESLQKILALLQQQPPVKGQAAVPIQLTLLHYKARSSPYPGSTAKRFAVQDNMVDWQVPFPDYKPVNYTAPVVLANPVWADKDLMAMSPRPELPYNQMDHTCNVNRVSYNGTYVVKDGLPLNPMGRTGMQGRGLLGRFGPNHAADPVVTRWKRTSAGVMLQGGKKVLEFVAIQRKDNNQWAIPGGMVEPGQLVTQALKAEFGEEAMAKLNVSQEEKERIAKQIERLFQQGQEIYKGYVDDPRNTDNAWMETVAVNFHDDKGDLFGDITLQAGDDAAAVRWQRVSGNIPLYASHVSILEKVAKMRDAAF
assay.name: Inside-out patch-clamp, T179A nvTRPM2
Format: cell-based
measurement.setup: read-out: EC50 for channel activation by Ca2+ (fractional Po), saturating ADPRP (100 µM) + 2.5 µM PIP2
value.type: EC50

>  <structure>
[Ca+2]

>  <measured.target>
T179A nvTRPM2 (Nematostella vectensis, UniProt A7T1N0, T179A)

>  <value.type>
EC50

>  <reported>
1800 nM

$$$$

----------
measured.target: T143A nvTRPM2 (Nematostella vectensis, UniProt A7T1N0, T143A)
assay.name: Inside-out patch-clamp, T143A nvTRPM2
Format: cell-based
measurement.setup: read-out: EC50 for channel activation, 125 µM Ca2+ + 2.5 µM PIP2

>  <compound>
Nc1ncnc2c1ncn2[C@@H]1O[C@H](COP(=O)(O)OP(=O)(O)OC[C@H]2O[C@@H](O)C(O)[C@H]2O)C(O)[C@@H]1OP(=O)(O)O (stereo partly shown) [ADPRP, ADPR-2′-phosphate]

>  <EC50 / nM>
1500

$$$$
